assay: Urinary excretion of phenolic metabolites after single 400 mL juçara juice intake (HPLC-DAD, LC-ESI-MS/MS); format: in vivo, human; settings: urine, 0–6 h after 400 mL juçara juice; mean ± SEM, n = 9–10
Under this convention, t denotes AUC strictly below 300 µmol/h and f denotes AUC at or above 300 µmol/h.

1. COc1cc(C(=O)O)ccc1O[C@@H]1O[C@H](C(=O)O)[C@@H](O)[C@H](O)[C@H]1O [Vanillic acid glucuronide] = t
2. COc1cc(C(=O)O)ccc1O = t
3. O=C(O)c1ccc(O)c(O)c1.O=C(O)c1ccc(O)c(O)c1 = t
4. O=C(O)Cc1ccc(O)cc1 [Hydroxyphenylacetic acid] = f
5. O=C(O)[C@H]1O[C@@H](Oc2c(-c3ccc(O)cc3)oc3cc(O)cc(O)c3c2=O)[C@H](O)[C@@H](O)[C@@H]1O [Kaempferol glucuronide] = t
6. O=C(O)CNC(=O)c1ccccc1 = f

====

test: Urinary excretion of phenolic metabolites after single 400 mL juçara juice intake (HPLC-DAD, LC-ESI-MS/MS); assay type: in vivo, human; conditions: urine, 10 healthy subjects, after 400 mL juçara juice; mean ± SEM, n = 9–10
Each entry below lists one item and its recorded log10(Cmax) value.
Endpoint: log10(Cmax) (log10 of the value in µmol/mmol Creatinine)

1. O=C(O)CNC(=O)c1ccccc1 = 2.78
2. COc1cc(C(=O)O)ccc1O[C@@H]1O[C@H](C(=O)O)[C@@H](O)[C@H](O)[C@H]1O [Vanillic acid glucuronide] = 1.22
3. O=C(O)[C@H]1O[C@@H](Oc2c(-c3ccc(O)cc3)oc3cc(O)cc(O)c3c2=O)[C@H](O)[C@@H](O)[C@@H]1O [Kaempferol glucuronide] = 1.13
4. O=C(O)c1ccc(O)c(O)c1.O=C(O)c1ccc(O)c(O)c1 = 1.45
5. O=C(O)Cc1ccc(O)cc1 [Hydroxyphenylacetic acid] = 2.52
6. COc1cc(C(=O)O)ccc1O = 1.30
